Taken from ChEMBL document CHEMBL4732242.

Measured pIC50, listed per entry.
- Target Or Test System: Dual specificity protein kinase CLK1 (Homo sapiens, UniProt P49759)
- Sequence (P49759 whole entry): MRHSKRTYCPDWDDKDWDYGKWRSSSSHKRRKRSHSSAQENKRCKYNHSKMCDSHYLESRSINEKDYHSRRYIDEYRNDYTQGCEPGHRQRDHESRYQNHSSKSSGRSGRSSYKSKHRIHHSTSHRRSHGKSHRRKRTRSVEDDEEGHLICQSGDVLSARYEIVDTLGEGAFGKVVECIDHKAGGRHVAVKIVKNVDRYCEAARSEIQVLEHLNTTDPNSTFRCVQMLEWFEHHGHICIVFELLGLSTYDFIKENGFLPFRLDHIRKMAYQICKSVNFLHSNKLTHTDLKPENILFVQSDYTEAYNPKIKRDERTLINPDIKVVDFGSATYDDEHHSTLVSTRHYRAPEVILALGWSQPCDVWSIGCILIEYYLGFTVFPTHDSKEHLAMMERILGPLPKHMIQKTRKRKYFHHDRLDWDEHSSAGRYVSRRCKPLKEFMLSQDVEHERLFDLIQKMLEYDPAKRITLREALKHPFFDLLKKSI
- Protocol: Inhibition of CLK1 (unknown origin) by NanoBRET cellular target engagement assay
pIC50: −log10 of the molar value.

(Q) Provide one value: measured pIC50 of COC(=N)c1nc2ccc3ncnc(Nc4ccc(OC)cc4F)c3c2s1
(A) < 5.52

(Q) Fill in pIC50 for record CC(C)(C)c1ccc(-c2coc3ccc(-c4cn[nH]n4)nc23)cc1
(A) < 4.30

(Q) Answer with the recorded pIC50 for the molecule listed here: CC(C)(C)c1ccc(-c2coc3ccc(-c4cn[nH]c4)nc23)cc1
(A) < 4.30

----------
- Target Or Test System: Mitogen-activated protein kinase kinase kinase 9 (Homo sapiens, UniProt P80192)
- Sequence (P80192 whole entry): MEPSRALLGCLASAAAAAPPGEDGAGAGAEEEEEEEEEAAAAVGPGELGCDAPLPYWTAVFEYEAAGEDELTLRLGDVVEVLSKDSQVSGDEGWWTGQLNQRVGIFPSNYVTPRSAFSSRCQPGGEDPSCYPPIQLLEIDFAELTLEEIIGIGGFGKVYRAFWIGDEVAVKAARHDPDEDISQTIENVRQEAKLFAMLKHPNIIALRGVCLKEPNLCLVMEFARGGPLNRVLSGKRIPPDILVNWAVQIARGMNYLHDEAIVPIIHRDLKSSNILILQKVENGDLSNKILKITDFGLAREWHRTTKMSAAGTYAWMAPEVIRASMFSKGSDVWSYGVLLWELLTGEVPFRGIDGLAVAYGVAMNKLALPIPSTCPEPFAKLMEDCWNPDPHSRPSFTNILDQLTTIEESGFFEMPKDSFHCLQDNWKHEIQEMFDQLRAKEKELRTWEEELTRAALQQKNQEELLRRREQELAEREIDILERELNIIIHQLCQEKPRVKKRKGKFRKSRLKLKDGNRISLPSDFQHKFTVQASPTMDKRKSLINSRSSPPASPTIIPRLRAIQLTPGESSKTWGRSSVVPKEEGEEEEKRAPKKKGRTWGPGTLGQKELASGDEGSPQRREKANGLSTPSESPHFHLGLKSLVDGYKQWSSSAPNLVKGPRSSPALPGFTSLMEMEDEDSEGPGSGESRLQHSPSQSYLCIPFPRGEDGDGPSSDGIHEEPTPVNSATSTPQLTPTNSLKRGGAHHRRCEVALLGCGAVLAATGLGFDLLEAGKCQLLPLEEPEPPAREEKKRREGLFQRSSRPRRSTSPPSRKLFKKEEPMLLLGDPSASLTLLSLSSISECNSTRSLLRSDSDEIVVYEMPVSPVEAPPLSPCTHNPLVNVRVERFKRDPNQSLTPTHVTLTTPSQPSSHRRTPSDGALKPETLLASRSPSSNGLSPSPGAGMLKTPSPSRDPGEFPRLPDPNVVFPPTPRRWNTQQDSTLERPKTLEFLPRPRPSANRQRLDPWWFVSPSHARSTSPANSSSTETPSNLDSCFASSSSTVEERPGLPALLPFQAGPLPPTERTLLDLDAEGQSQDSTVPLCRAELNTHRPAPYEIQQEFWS
- Protocol: Inhibition of MLK1 (unknown origin) by NanoBRET cellular target engagement assay
Consider the following compounds and their measured IC50 readings.

(Q) Tell us which IC50 value is on record for CC(C)(C)c1ccc(-c2coc3ccc(-c4cn[nH]n4)nc23)cc1
(A) 15 µM

(Q) Give a short answer stating reported IC50 for COC(=N)c1nc2ccc3ncnc(Nc4ccc(OC)cc4F)c3c2s1 .
(A) > 3 µM

(Q) For the compound CC(C)(C)c1ccc(-c2coc3ccc(-c4cn[nH]c4)nc23)cc1 , give its reported IC50.
(A) > 50 µM

----------
- Target Or Test System: Homeodomain-interacting protein kinase 1 (Homo sapiens)
- Protocol: Inhibition of human recombinant HIPK1 using myelin substrate by radiometric scintillation assay
Quantity Kind: IC50 (nM)
Express it in nM; write the number only.

Solved entries (count: 5):
Record Smiles	IC50 [nM]
CC1(c2ccc(-c3coc4ccc(-c5cn[nH]c5)nc34)cc2)CC1	220
Cn1cc(-c2ccc3occ(-c4cccc(-c5cc[nH]n5)c4)c3n2)cn1	125
c1ccc(-c2ccc(-c3coc4ccc(-c5cn[nH]c5)nc34)cc2)cc1	278
CC(C)Cc1ccc(-c2coc3ccc(-c4cn[nH]c4)nc23)cc1	685
CC(C)(C)c1ccc(-c2coc3ccc(-c4cn[nH]n4)nc23)cc1	285

Here is the next item to consider.
(Q) Please give measured IC50 of the following entry: Cn1cc(-c2ccc3occ(-c4cccc(C5CCNCC5)c4)c3n2)cn1
(A) 264

----------
Catalogue of pIC50 readings, one per entry.
- Target Or Test System: Homeodomain-interacting protein kinase 3 (Homo sapiens, UniProt Q9H422)
- Sequence (Q9H422 whole entry): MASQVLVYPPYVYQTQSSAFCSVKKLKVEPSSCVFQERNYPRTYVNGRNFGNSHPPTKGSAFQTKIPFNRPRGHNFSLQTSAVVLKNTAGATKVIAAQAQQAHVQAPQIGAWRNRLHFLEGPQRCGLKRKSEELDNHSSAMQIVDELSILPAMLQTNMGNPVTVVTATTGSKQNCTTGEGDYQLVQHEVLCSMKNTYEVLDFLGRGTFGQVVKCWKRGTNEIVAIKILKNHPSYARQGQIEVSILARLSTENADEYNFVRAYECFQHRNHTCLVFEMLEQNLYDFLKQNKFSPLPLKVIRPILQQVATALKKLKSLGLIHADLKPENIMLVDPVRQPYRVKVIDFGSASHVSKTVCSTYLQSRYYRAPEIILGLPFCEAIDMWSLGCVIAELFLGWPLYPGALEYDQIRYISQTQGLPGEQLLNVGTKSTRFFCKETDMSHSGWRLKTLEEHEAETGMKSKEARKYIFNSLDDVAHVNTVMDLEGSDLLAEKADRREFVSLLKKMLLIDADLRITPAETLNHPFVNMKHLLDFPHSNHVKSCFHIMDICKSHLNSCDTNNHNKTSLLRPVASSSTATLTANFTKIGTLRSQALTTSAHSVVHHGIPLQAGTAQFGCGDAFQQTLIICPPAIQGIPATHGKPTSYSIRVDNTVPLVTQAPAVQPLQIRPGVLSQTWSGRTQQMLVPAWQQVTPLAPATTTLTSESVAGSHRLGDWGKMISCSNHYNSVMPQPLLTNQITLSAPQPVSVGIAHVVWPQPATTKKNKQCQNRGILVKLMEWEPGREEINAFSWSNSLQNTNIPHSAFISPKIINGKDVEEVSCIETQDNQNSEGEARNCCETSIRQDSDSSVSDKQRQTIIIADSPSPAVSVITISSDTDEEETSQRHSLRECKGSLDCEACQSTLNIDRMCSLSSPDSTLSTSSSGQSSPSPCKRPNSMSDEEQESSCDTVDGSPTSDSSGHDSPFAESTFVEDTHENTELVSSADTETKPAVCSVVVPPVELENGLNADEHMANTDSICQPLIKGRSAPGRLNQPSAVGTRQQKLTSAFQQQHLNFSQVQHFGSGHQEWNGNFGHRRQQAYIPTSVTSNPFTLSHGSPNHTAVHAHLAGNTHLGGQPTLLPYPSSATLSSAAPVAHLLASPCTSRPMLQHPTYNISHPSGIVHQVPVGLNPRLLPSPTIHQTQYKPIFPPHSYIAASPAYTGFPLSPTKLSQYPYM
- Protocol: Inhibition of human recombinant HIPK3 using myelin substrate by radiometric scintillation assay
The meaning of pIC50 here: minus log10 of the concentration in molar units.

// solved cases for pIC50 follow
Record Smiles	Measured Result
c1ccc(-c2coc3ccc(-c4cn[nH]c4)nc23)cc1	6.89
Cn1cc(-c2ccc3occ(-c4cccc(-c5cc[nH]n5)c4)c3n2)cn1	6.89
COc1ccc(-c2coc3ccc(-c4cn[nH]c4)nc23)cc1	7.18
CC(C)(C)c1ccc(-c2coc3ccc(-c4cn[nH]c4)nc23)cc1	6.32
Cn1cc(-c2cccc(-c3coc4ccc(-c5cnn(C)c5)nc34)c2)cn1	6.90

Shifting focus to the molecule that follows.
(Q) Read the entry c1ccc(-c2ccc(-c3coc4ccc(-c5cn[nH]c5)nc34)cc2)cc1 and write its reported pIC50.
(A) 6.09

----------
- Target Or Test System: Dual specificity tyrosine-phosphorylation-regulated kinase 1A (Homo sapiens, UniProt Q13627)
- Protocol: Inhibition of DYRK1A (unknown origin) by NanoBRET cellular target engagement assay
Quantity Kind: pIC50
# log scale: pIC50 equals minus log10 of the concentration in mol/L

(Q) Report measured pIC50; entry is CC(C)(C)c1ccc(-c2coc3ccc(-c4cn[nH]c4)nc23)cc1
(A) 4.37

----------
- Target Or Test System: Homeodomain-interacting protein kinase 3 (Homo sapiens)
- Protocol: Inhibition of human recombinant HIPK3 using myelin substrate by radiometric scintillation assay
Quantity Kind: IC50 (nM)
Give the quantity in nM, number only.

Please review the entries below; each comes with its answer.
Record Smiles	Target Or Test System	Units Symbol	IC50
c1ccc2cc(-c3coc4ccc(-c5cn[nH]c5)nc34)ccc2c1	Homeodomain-interacting protein kinase 3 (Homo sapiens)	nM	38
CC1(c2ccc(-c3coc4ccc(-c5cn[nH]c5)nc34)cc2)CC1	Homeodomain-interacting protein kinase 3 (Homo sapiens)	nM	441

Now examine the next entry.
(Q) Provide only the value of recorded IC50 for CC(C)(C)c1ccc(-c2coc3ccc(-c4nn[nH]n4)nc23)cc1
(A) 720

----------
- Target Or Test System: Dual specificity protein kinase CLK1 (Homo sapiens)
- Protocol: Inhibition of human recombinant CLK1 using ERMRPRKRQGSVR substrate by radiometric scintillation assay
Reported values of IC50 for individual entries

(Q) Supply IC50 value. Item: CC(C)(C)c1ccc(-c2coc3ccc(-c4cn[nH]n4)nc23)cc1
(A) > 3000 nM

(Q) Report IC50, nothing else, for this molecule: Cn1cc(-c2ccc3occ(-c4ccc(C(C)(C)C)cc4)c3n2)cn1
(A) > 3000 nM

----------
- Target Or Test System: Dual specificity protein kinase CLK3 (Homo sapiens, UniProt P49761)
- Sequence (P49761 whole entry): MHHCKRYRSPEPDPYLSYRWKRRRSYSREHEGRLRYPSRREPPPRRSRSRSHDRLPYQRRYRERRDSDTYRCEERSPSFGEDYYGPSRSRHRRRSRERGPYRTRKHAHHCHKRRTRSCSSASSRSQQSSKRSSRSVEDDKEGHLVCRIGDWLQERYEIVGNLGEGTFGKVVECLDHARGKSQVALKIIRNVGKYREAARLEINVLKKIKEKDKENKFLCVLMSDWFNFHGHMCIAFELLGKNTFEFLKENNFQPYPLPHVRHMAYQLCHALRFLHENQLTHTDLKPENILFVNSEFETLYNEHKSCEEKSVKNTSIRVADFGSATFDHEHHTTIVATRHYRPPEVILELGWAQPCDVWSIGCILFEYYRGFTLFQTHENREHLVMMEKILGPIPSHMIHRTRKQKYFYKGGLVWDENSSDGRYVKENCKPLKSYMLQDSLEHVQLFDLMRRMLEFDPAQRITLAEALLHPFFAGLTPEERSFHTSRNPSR
- Protocol: Inhibition of human full length recombinant CLK3 using ERMRPRKRQGSVR substrate by radiometric scintillation assay
pIC50: −log10 of the molar value.
Quantity Kind: pIC50

Observe how each entry below is paired with its result.
Record Smiles	Quantity Kind	Measured Result
Cn1cc(-c2ccc3occ(-c4cccc(-c5cn[nH]c5)c4)c3n2)cn1	pIC50	5.80
Cn1cc(-c2ccc3occ(-c4ccc(C(C)(C)C)cc4)c3n2)nn1	pIC50	< 5.52

Now look at this one.
(Q) Give pIC50 only, for Cn1cc(-c2ccc3occ(-c4cccc(-c5cc[nH]n5)c4)c3n2)cn1 , using Dual specificity protein kinase CLK3 (Homo sapiens, UniProt P49761) data.
(A) 5.78

----------
A collection of compounds and their measured IC50
- Target Or Test System: Dual specificity protein kinase CLK3 (Homo sapiens, UniProt P49761)
- Protocol: Inhibition of CLK3 (unknown origin) by NanoBRET cellular target engagement assay

The cases that follow already have their IC50 on record.
Record Smiles	Measured Result
COC(=N)c1nc2ccc3ncnc(Nc4ccc(OC)cc4F)c3c2s1	> 3 µM
CC(C)(C)c1ccc(-c2coc3ccc(-c4cn[nH]c4)nc23)cc1	43 µM

(Q) Write down IC50 measured for item CC(C)(C)c1ccc(-c2coc3ccc(-c4cn[nH]n4)nc23)cc1
(A) > 50 µM

----------
- Target Or Test System: Homeodomain-interacting protein kinase 2 (Homo sapiens, UniProt Q9H2X6)
- Sequence (Q9H2X6 whole entry): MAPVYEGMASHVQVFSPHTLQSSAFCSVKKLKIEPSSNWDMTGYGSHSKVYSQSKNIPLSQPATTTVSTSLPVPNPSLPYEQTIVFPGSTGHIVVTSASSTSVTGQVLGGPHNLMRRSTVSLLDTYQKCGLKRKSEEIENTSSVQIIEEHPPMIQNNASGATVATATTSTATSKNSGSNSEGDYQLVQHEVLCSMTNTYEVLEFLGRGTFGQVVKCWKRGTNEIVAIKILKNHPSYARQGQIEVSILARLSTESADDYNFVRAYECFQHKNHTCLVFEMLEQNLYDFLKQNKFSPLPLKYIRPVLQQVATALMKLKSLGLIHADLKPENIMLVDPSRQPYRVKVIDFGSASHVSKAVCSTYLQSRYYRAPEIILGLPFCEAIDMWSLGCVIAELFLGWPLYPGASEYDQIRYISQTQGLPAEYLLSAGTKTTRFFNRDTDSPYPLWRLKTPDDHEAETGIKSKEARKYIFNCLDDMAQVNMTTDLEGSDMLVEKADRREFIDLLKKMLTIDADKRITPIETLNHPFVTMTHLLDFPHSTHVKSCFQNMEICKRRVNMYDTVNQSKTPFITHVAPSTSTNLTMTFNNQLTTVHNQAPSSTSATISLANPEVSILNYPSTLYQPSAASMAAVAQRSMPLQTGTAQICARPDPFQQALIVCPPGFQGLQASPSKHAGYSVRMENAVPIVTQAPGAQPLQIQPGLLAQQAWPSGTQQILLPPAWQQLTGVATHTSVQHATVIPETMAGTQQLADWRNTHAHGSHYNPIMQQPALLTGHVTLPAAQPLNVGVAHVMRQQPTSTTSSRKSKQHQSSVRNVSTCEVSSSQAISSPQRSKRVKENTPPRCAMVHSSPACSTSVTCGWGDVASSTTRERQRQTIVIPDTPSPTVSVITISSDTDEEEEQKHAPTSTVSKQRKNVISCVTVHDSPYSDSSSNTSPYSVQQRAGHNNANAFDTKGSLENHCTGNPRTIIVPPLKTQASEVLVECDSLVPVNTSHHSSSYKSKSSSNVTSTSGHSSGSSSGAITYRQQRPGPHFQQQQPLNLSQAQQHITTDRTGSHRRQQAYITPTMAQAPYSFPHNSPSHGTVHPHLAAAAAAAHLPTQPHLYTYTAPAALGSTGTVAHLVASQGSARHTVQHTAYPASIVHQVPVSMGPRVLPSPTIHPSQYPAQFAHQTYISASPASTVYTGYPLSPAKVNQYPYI
- Protocol: Inhibition of human recombinant HIPK2 using myelin substrate by radiometric scintillation assay
Quantity Kind: IC50

The cases that follow already have their IC50 on record.
Record Smiles	IC50
Cn1cc(-c2ccc3occ(-c4ccc(C(C)(C)C)cc4)c3n2)cn1	> 3000 nM
CC(C)(C)c1ccc(-c2coc3ccc(-c4cnn(CCN5CCOCC5)c4)nc23)cc1	> 3000 nM
Cn1cc(-c2ccc3occ(-c4ccc(C(C)(C)C)cc4)c3n2)nn1	> 3000 nM

(Q) Entry C=C(C)c1ccc(-c2coc3ccc(-c4cn[nH]c4)nc23)cc1 needs its IC50 filled in; supply it.
(A) 41 nM

(Q) Provide one value: measured IC50 of Cn1cc(-c2ccc3occ(-c4cccc(-c5cc[nH]n5)c4)c3n2)cn1
(A) 30 nM

----------
- Target Or Test System: Homeodomain-interacting protein kinase 3 (Homo sapiens)
- Protocol: Inhibition of human recombinant HIPK3 using myelin substrate by radiometric scintillation assay
Quantity Kind: pIC50
Lab note: report pIC50 as minus log10 of the concentration in molar units, number only.

Consider the following illustrative entries.
Record Smiles	pIC50
C=C(C)c1ccc(-c2coc3ccc(-c4cn[nH]c4)nc23)cc1	7.19
Cn1cc(-c2ccc3occ(-c4cccc(C5CCNCC5)c4)c3n2)cn1	6.52
CC(C)Cc1ccc(-c2coc3ccc(-c4cn[nH]c4)nc23)cc1	5.91

(Q) For the molecule CC(C)(C)c1ccc(-c2coc3ccc(-c4cn[nH]n4)nc23)cc1 , report pIC50.
(A) 6.55

(Q) Please report pIC50 for the following molecule: CN1CCC(c2cccc(-c3coc4ccc(-c5cnn(C)c5)nc34)c2)CC1
(A) 6.16

(Q) Identify measured pIC50 corresponding to Cn1cc(-c2ccc3occ(-c4cccc(-c5cn[nH]c5)c4)c3n2)cn1
(A) 6.79

----------
- Target Or Test System: Homeodomain-interacting protein kinase 2 (Homo sapiens)
- Protocol: Inhibition of human recombinant HIPK2 using myelin substrate by radiometric scintillation assay
Attribute: IC50
Quick reminder: number only, in nM, skip the unit.

Solved entries (count: 5):
Record Smiles	Units Symbol	Measured Result
c1ccc(-c2ccc(-c3coc4ccc(-c5cn[nH]c5)nc34)cc2)cc1	nM	172
Cn1cc(-c2ccc3occ(-c4cccc(C5CCNCC5)c4)c3n2)cn1	nM	179
CC(C)(C)c1ccc(-c2coc3ccc(-c4nn[nH]n4)nc23)cc1	nM	357
CC(C)Cc1ccc(-c2coc3ccc(-c4cn[nH]c4)nc23)cc1	nM	501
CC(C)(C)c1ccc(-c2coc3ccc(-c4cn[nH]n4)nc23)cc1	nM	123

(Q) Please indicate IC50 recorded for Cn1cc(-c2cccc(-c3coc4ccc(-c5cnn(C)c5)nc34)c2)cn1
(A) 70

(Q) Answer with the recorded IC50 for the molecule listed here: Cn1cc(-c2coc3ccc(-c4cn[nH]c4)nc23)cn1
(A) 28

(Q) Note IC50 for the molecule shown: CC(C)(C)c1ccc(-c2coc3ccc(-c4cn[nH]c4)nc23)cc1
(A) 119
